This listing pairs compounds with measured relative viability.
Test system: NCI-H1793
Experiment: relative viability (nuclei count vs DMSO), 5 days (fraction); higher = more cells survive
Details: first compound 1 µM
Form: value (number only, do not type unit).

O=c1cc(N2CCOCC2)oc2c(-c3cccc4c3sc3ccccc34)cccc12 + Nc1nc2[nH]cc(CCc3ccc(C(=O)N[C@@H](CCC(=O)O)C(=O)O)cc3)c2c(=O)[nH]1 [Pemetrexed] (partner 0.2 µM)    0.74
CCN(CC)CCCCNc1ncc2cc(-c3cc(OC)cc(OC)c3)c(NC(=O)NC(C)(C)C)nc2n1 + CC(=O)c1c(C)c2cnc(Nc3ccc(N4CCNCC4)cn3)nc2n(C2CCCC2)c1=O [Palbociclib] (partner 0.5 µM)    0.269
CCN(CC)CCCCNc1ncc2cc(-c3cc(OC)cc(OC)c3)c(NC(=O)NC(C)(C)C)nc2n1 + Cc1cc(Nc2cc(N3CCN(C)CC3)nc(Sc3ccc(NC(=O)C4CC4)cc3)n2)n[nH]1 [Tozasertib] (partner 0.1 µM)    0.241

// next entry
### Prompt Could you tell me which relative viability is on file for O=c1cc(N2CCOCC2)oc2c(-c3cccc4c3sc3ccccc34)cccc12 + CC(=O)Nc1cccc(-n2c(=O)n(C3CC3)c(=O)c3c(Nc4ccc(I)cc4F)n(C)c(=O)c(C)c32)c1 [Trametinib] (partner 0.02 µM) ?
### Response 0.38
